- test: Pharmacokinetic studies after single intravenous or rectal administration
- setup conditions: New Zealand white, rabbit, in vivo, 100 mg/kg
readout label: Tmax (h)

structure_smiles_string=CCc1c2c(nc3ccc(OC(=O)N4CCC(N5CCCCC5)CC4)cc13)-c1cc3c(c(=O)n1C2)COC(=O)[C@]3(O)CC readout_label=Tmax readout_units=h measurement=4

====

- test: Pharmacokinetic studies after single intravenous or rectal administration
- setup conditions: New Zealand white, rabbit, in vivo, 100 mg/kg, AUC0-∞, rabbits, rectal administration (suppository), plasma
readout label: AUC(0-inf) (ng·h/mL)

structure_smiles_string=CCc1c2c(nc3ccc(OC(=O)N4CCC(N5CCCCC5)CC4)cc13)-c1cc3c(c(=O)n1C2)COC(=O)[C@]3(O)CC readout_label=AUC(0-inf) measurement=41600

====

- test: Pharmacokinetic studies after single intravenous or rectal administration
- setup conditions: New Zealand white, rabbit, in vivo, iv, 50 mg/kg, AUC0–30h, rabbits, intravenous administration, plasma
readout label: AUC(0-t) (ng·h/mL)

molecule="CCc1c2c(nc3ccc(OC(=O)N4CCC(N5CCCCC5)CC4)cc13)-c1cc3c(c(=O)n1C2)COC(=O)[C@]3(O)CC [irinotecan]" readout_label=AUC(0-t) measurement=71300

====

- test: Pharmacokinetic studies after single intravenous or rectal administration
- setup conditions: New Zealand white, rabbit, in vivo, iv, 50 mg/kg, AUC0-∞, rabbits, intravenous administration, plasma
readout label: AUC(0-inf) (ng·h/mL)

molecule="CCc1c2c(nc3ccc(OC(=O)N4CCC(N5CCCCC5)CC4)cc13)-c1cc3c(c(=O)n1C2)COC(=O)[C@]3(O)CC [irinotecan]" measurement=82300
